# tested.system: CYP3A4 (Homo sapiens, UniProt P08684)
# Construct: using isoform-specific substrates incubated with human liver microsomes; tissue Eurofins protocol ITEMG232; host or cells: human liver microsomes
# Sequence (P08684 whole entry, canonical isoform): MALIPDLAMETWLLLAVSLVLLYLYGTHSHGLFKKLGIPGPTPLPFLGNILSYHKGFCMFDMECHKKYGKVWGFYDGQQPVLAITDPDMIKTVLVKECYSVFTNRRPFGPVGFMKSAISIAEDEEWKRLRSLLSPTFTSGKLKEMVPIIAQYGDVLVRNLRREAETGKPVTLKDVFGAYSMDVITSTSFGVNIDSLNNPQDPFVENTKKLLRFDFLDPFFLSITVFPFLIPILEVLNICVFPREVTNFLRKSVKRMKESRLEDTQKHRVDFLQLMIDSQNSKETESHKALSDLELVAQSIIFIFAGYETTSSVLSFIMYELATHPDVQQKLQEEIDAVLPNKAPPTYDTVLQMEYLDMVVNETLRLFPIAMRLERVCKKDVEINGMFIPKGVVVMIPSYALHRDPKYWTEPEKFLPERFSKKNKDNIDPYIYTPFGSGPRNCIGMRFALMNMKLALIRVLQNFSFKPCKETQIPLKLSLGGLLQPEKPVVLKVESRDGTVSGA
# assay.text: CYP inhibition in human liver microsomes, midazolam substrate
# Assay type: in vitro ADME
# measurement.conditions: probe midazolam, read-out: CYP3A4 midazolam Inh %
readout.label: inhibition at 10 µM (%)

Worked cases, answers included:
Cc1nccn1Cc1c(F)cc(-c2cc(CC(C)C)sc2S(=O)(=O)NC(=O)NCCO)cc1F = 44.6
CC(C)Cc1cc(-c2ccc(Cn3ccnc3C(C)(C)C)c(F)c2)c(S(=O)(=O)NC(=O)NCCO)s1 = 13

A = Cc1nccn1Cc1ccc(-c2cc(CC(C)C)sc2S(=O)(=O)NC(=O)NCCCO)cc1F
B = Cc1nccn1Cc1ccc(-c2cc(CC(C)C)sc2S(=O)(=O)NC(=O)NCC(C)(C)O)cc1F
C = Cc1nccn1Cc1ccc(-c2cc(CC(C)C)sc2S(=O)(=O)NC(=O)NCCO)cc1F
Task for the reader: rank each entry by its inhibition at 10 µM, from the minimum upward. Please express your ranking as an ordered list of the labels.
C, A, B

I = Cc1nccn1Cc1ccc(-c2cc(CC(C)C)sc2S(=O)(=O)NC(=O)NCCO)c(F)c1
II = CC(C)Cc1cc(-c2ccc(Cn3ccnc3C(C)(C)C)c(F)c2)c(S(=O)(=O)NC(=O)NCC(C)(C)O)s1
I need your help: which of the pair I , II has higher inhibition at 10 µM? Selection: enter the item's label.
I

* * *

# tested.system: CYP2B6 (Homo sapiens)
# Construct: using isoform-specific substrates incubated with human liver microsomes; tissue Eurofins protocol ITEMG232; host or cells: human liver microsomes
# Sequence (P20813 1-491): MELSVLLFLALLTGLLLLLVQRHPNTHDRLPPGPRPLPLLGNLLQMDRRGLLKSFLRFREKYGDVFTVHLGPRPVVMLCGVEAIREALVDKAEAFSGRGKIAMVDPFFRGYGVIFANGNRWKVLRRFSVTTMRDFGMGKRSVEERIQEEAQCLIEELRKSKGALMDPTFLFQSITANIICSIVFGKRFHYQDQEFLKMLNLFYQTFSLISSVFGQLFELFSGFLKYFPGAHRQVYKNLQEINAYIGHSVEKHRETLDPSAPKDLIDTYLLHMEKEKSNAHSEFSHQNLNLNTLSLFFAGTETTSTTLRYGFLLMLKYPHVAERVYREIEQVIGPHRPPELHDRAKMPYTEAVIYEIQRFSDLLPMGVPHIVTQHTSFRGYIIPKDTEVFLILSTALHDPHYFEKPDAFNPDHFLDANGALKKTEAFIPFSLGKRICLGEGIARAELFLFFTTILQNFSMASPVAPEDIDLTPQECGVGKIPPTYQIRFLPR
# assay.text: CYP inhibition in human liver microsomes, bupropion substrate
# Type: in vitro ADME
# measurement.conditions: probe bupropion, read-out: CYP2B6 Inh %
readout.label: inhibition at 10 µM (%)

Worked cases, answers included:
CC(C)Cc1cc(-c2ccc(Cn3ccnc3C(C)(C)C)c(F)c2)c(S(=O)(=O)NC(=O)NCC(C)(C)O)s1 = 17.4
Cc1nccn1Cc1ccc(-c2cc(CC(C)C)sc2S(=O)(=O)NC(=O)NCC(C)(C)O)cc1F = 22.6

P = Cc1nccn1Cc1ccc(-c2cc(CC(C)C)sc2S(=O)(=O)NC(=O)NCCO)c(F)c1
Q = Cc1nccn1Cc1c(F)cc(-c2cc(CC(C)C)sc2S(=O)(=O)NC(=O)NCCO)cc1F
I need your help: which of the pair P , Q has higher inhibition at 10 µM? Selection: enter the item's label.
Q
(Q: 27.4%, P: 3.2%)

* * *

# tested.system: CYP2C8 (Homo sapiens, UniProt P10632)
# Construct: using isoform-specific substrates incubated with human liver microsomes; tissue Eurofins protocol ITEMG232; host or cells: human liver microsomes
# Sequence (P10632 whole entry, canonical isoform): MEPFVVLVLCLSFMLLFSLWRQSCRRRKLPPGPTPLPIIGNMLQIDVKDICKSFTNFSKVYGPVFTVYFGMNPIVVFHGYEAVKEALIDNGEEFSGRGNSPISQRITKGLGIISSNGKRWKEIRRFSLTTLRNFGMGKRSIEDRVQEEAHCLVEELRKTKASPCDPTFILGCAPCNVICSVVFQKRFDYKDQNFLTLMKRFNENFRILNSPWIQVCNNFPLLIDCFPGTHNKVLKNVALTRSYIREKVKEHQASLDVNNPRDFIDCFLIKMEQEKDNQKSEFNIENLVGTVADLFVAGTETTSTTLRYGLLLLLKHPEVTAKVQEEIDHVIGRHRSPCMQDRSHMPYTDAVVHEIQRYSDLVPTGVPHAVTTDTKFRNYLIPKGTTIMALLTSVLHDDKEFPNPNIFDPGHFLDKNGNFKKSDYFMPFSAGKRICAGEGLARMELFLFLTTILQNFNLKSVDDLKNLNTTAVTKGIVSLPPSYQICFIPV
# assay.text: CYP inhibition in human liver microsomes, paclitaxel and amodiaquine substrates
# Type: in vitro ADME
# measurement.conditions: probe paclitaxel and amodiaquine, read-out: CYP2C8 Inh %
readout.label: inhibition at 10 µM (%)

P = Cc1nccn1Cc1c(F)cc(-c2cc(CC(C)C)sc2S(=O)(=O)NC(=O)NCCO)cc1F [Example 5]
Q = Cc1nccn1Cc1ccc(-c2cc(CC(C)C)sc2S(=O)(=O)NC(=O)NCCO)c(F)c1 [Example 4]
R = CC(C)Cc1cc(-c2ccc(Cn3ccnc3C(C)(C)C)c(F)c2)c(S(=O)(=O)NC(=O)NCC(C)(C)O)s1 [Example 7]
Order by inhibition at 10 µM, ascending. Please express your ranking as an ordered list of the labels.
Q, P, R
(Q: 10.4%, P: 36.2%, R: 69.8%)

* * *

# tested.system: CYP2D6 (Homo sapiens, UniProt P10635)
# Construct: tissue Eurofins protocol ITEMG232; host or cells: human liver microsomes
# Sequence (P10635 whole entry): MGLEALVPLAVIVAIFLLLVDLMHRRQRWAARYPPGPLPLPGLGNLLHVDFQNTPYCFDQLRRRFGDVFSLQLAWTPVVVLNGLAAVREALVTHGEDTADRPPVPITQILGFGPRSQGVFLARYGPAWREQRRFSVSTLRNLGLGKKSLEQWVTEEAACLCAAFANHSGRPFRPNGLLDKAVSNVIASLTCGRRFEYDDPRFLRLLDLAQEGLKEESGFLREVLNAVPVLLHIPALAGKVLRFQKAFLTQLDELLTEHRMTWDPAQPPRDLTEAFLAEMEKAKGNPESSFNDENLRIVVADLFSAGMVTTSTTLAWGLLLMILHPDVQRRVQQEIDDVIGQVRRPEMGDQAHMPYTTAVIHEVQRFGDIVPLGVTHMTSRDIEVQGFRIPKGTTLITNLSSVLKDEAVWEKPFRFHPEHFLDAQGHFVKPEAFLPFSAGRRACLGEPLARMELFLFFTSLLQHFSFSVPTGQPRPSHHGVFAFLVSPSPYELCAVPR
# assay.text: CYP inhibition in human liver microsomes, dextromethorphan substrate
# Format: in vitro ADME
# measurement.conditions: probe dextromethorphan, read-out: CYP2D6 Inh %
readout.label: inhibition at 10 µM (%)

CC(C)Cc1cc(-c2ccc(Cn3ccnc3C(C)(C)C)c(F)c2)c(S(=O)(=O)NC(=O)NCCO)s1 = 10.1

P = Cc1nccn1Cc1ccc(-c2cc(CC(C)C)sc2S(=O)(=O)NC(=O)NCCCO)cc1F
Q = Cc1nccn1Cc1c(F)cc(-c2cc(CC(C)C)sc2S(=O)(=O)NC(=O)NCCO)cc1F
R = CCc1nccn1Cc1ccc(-c2cc(CC(C)C)sc2S(=O)(=O)NC(=O)NCCO)cc1F
Task for the reader: rank each entry by its inhibition at 10 µM, from the minimum upward. Please express your ranking as an ordered list of the labels.
R, P, Q
(R: 8%, P: 13.6%, Q: 36.3%)

* * *

# tested.system: human recombinant AT2 receptor (Homo sapiens)
# Sequence (P50052 whole entry): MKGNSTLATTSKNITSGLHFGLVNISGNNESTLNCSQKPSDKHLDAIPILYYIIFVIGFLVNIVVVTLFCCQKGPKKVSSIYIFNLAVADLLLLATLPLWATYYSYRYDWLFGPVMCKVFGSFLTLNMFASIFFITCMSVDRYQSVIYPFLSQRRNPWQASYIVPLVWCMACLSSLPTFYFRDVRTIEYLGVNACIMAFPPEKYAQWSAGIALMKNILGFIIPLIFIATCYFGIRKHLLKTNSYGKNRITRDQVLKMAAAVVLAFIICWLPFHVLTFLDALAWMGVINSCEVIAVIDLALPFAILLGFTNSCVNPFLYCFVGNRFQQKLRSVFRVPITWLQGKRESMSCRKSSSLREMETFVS
# assay.text: biochemical
# measurement.conditions: seven-point dose-response curve; ligand 125I CGP 42112A; read-out: AT2R Ki
readout.label: pKi
Reminder that pKi is minus the log10 of a molar concentration.

What value of pKi has been recorded for this entry: CC(C)Cc1cc(-c2ccc(Cn3ccnc3C(C)C)c(F)c2)c(S(=O)(=O)NC(=O)NCCO)s1
9.02

* * *

# tested.system: CYP2C19 (Homo sapiens, UniProt P33261)
# Construct: using isoform-specific substrates incubated with human liver microsomes; tissue Eurofins protocol ITEMG232; host or cells: human liver microsomes
# Sequence (P33261 whole entry, canonical isoform): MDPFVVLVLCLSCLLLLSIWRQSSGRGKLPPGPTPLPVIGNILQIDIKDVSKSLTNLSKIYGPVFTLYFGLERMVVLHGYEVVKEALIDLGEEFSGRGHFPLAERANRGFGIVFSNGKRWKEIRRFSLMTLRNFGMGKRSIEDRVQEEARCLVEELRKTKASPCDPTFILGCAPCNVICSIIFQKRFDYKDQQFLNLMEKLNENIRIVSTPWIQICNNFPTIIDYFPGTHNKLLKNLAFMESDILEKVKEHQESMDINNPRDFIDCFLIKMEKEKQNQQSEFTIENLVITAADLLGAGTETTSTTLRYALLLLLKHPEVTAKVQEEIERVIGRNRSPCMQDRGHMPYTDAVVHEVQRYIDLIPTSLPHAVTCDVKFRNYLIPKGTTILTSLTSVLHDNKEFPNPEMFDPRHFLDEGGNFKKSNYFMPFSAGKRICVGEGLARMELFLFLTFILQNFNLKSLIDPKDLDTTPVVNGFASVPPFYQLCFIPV
# assay.text: CYP inhibition in human liver microsomes, omeprazole substrate
# Format: in vitro ADME
# measurement.conditions: probe omeprazole, read-out: CYP2C19 Inh %
readout.label: inhibition at 10 µM (%)

CC(C)Cc1cc(-c2ccc(Cn3ccnc3C(C)(C)C)c(F)c2)c(S(=O)(=O)NC(=O)NCCO)s1 [Example 6] = 14.7
CC(C)Cc1cc(-c2ccc(Cn3ccnc3C(C)(C)C)c(F)c2)c(S(=O)(=O)NC(=O)NCC(C)(C)O)s1 [Example 7] = 27.4
Cc1nccn1Cc1c(F)cc(-c2cc(CC(C)C)sc2S(=O)(=O)NC(=O)NCCO)cc1F [Example 5] = -30.1
Cc1nccn1Cc1ccc(-c2cc(CC(C)C)sc2S(=O)(=O)NC(=O)NCCCO)cc1F [Example 2] = 26.3
Cc1nccn1Cc1ccc(-c2cc(CC(C)C)sc2S(=O)(=O)NC(=O)NCCO)c(F)c1 [Example 4] = 29.6
CCc1nccn1Cc1ccc(-c2cc(CC(C)C)sc2S(=O)(=O)NC(=O)NCCO)cc1F [Example 8] = 17.7

P = Cc1nccn1Cc1ccc(-c2cc(CC(C)C)sc2S(=O)(=O)NC(=O)NCC(C)(C)O)cc1F [Example 3]
Q = Cc1nccn1Cc1ccc(-c2cc(CC(C)C)sc2S(=O)(=O)NC(=O)NCCO)cc1F [Example 1]
Sorting ascending by inhibition at 10 µM, which comes first: P or Q ? Selection: enter the item's label.
Q
(Q: 6.5%, P: 21.2%)

* * *

# tested.system: CYP2B6 (Homo sapiens, UniProt P20813)
# Construct: using isoform-specific substrates incubated with human liver microsomes; tissue Eurofins protocol ITEMG232; host or cells: human liver microsomes
# Sequence (P20813 1-491): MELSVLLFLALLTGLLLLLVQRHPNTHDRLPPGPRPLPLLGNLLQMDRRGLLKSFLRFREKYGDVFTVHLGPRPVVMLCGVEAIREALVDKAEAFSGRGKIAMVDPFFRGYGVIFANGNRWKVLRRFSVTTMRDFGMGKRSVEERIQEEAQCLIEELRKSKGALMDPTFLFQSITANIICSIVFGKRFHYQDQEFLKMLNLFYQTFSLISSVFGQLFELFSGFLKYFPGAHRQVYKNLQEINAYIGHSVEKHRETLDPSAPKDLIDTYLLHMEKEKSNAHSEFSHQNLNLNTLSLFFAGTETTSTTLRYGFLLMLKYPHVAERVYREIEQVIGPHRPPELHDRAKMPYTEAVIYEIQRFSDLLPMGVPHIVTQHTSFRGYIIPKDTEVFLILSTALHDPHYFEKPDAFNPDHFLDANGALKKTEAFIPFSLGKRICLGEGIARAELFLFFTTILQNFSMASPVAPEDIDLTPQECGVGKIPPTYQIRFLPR
# assay.text: CYP inhibition in human liver microsomes, bupropion substrate
# Format: in vitro ADME
# measurement.conditions: probe bupropion, read-out: CYP2B6 Inh %
readout.label: inhibition at 10 µM (%)

CC(C)Cc1cc(-c2ccc(Cn3ccnc3C(C)(C)C)c(F)c2)c(S(=O)(=O)NC(=O)NCCO)s1 = 8.2

A = Cc1nccn1Cc1ccc(-c2cc(CC(C)C)sc2S(=O)(=O)NC(=O)NCCO)cc1F
B = CCc1nccn1Cc1ccc(-c2cc(CC(C)C)sc2S(=O)(=O)NC(=O)NCCO)cc1F
C = Cc1nccn1Cc1ccc(-c2cc(CC(C)C)sc2S(=O)(=O)NC(=O)NCCCO)cc1F
Task for the reader: rank each entry by its inhibition at 10 µM, from the minimum upward. Please express your ranking as an ordered list of the labels.
C, A, B
(C: 3.1%, A: 6.2%, B: 14%)

Data origin, for the record: patent US20240174657A1
